Just for reference, patent US7297797B2 is where these values come from.

Experiment description: log P determination by HPLC on reversed-phase column (EEC Directive 79/831 Annex V.A8)
Type: physicochemical
Condition notes: reversed-phase C18 HPLC column; acidic range, pH 2.3, 0.1% aqueous phosphoric acid/acetonitrile, 43° C.; marked a) in tables; read-out: log P (pH 2.3)
Quantity name: chromatographic logP

In the examples that follow, each entry is paired with its recorded chromatographic logP.
• CC(C)(C)c1nc(-c2ccc(-c3ccc(C4CCC(c5c(F)cccc5F)=N4)c(F)c3)cc2)no1 (centres unmarked) [Example 6] = 5.65
• O=C(c1c(F)cccc1F)C1CC1c1ccc(Br)cc1F (centres unmarked) = 4.31
• O=C(/C=C/c1ccc(Br)cc1F)c1c(F)cccc1F = 4.18
• CCOc1ccc(-c2ccc(-c3ccc(C4CCC(c5c(F)cccc5F)=N4)cc3)cc2)s1 (centres unmarked) [Example 1] = 4.88
• Fc1cc(-c2ccc(-c3noc(C(F)(F)F)n3)cc2)ccc1C1CCC(c2c(F)cccc2F)=N1 (centres unmarked) [Example 7] = 5.43

1. Cc1ccccc1C1=NC(c2ccc(-c3ccc(-c4noc(C(C)(C)C)n4)cc3)cc2)CC1 (centres unmarked) [Example 11]
2. Cc1ccccc1C1=NC(c2ccc(B3OC(C)(C)C(C)(C)O3)cc2)CC1 (centres unmarked) [II-1]
Quick check, higher chromatographic logP between 1 and 2 ? Give the label under which the chosen entry appears. 1
(1: 3.99, 2: 2.25)

----------
Experiment description: log P determination by HPLC on reversed-phase column (EEC Directive 79/831 Annex V.A8)
Assay type: physicochemical
Condition notes: reversed-phase C18 HPLC column; neutral range, pH 7.5, 0.01 molar aqueous phosphate buffer/acetonitrile, 43° C.; marked b) in tables; read-out: log P (pH 7.5)
Quantity name: chromatographic logP

* N#Cc1cnn(-c2ccc(-c3ccc(C4CCC(c5c(F)cccc5F)=N4)cc3)cc2)c1 (centres unmarked) [Example 18] | 4.03
* CCOc1ccc(-c2ccc(-c3ccc(C4CCC(c5c(F)cccc5F)=N4)cc3)cc2)s1 (centres unmarked) [Example 1] | 5.84
* Cc1nc(-c2ccc(-c3ccc(C4CCC(c5c(F)cccc5F)=N4)cc3)cc2)cs1 (centres unmarked) [Example 22] | 4.68
* CC(C)(C)c1nc(-c2ccc(-c3ccc(C4CCC(c5c(F)cccc5F)=N4)c(F)c3)cc2)no1 (centres unmarked) [Example 6] | 5.97
* Cc1ccccc1C1=NC(c2ccc(Br)cc2)CC1 (centres unmarked) | 4.48
* Cc1ccccc1C1=NC(c2ccc(B3OC(C)(C)C(C)(C)O3)cc2)CC1 (centres unmarked) [II-1] | 4.98
* CC(C)(C)c1noc(-c2ccc(-c3ccc(C4CCC(c5c(F)cccc5F)=N4)c(F)c3)cc2)n1 (centres unmarked) [Example 5] | 6.06
* Fc1cc(-c2ccc(-c3noc(C(F)(F)F)n3)cc2)ccc1C1CCC(c2c(F)cccc2F)=N1 (centres unmarked) [Example 7] | 5.72

----------
Tested on: larvae of the mustard beetle (Phaedon cochleariae)
Experiment description: Phaedon larvae test
Format: in vivo
Condition notes: 168 h, 100 ppm active compound, cabbage leaves (Brassica oleracea) dipped, after 7 d, read-out: Kill rate in % after 7 d
Quantity name: pest or weed control at 100 ppm (%)
Please respond with the number in % and leave the unit unwritten.

In the examples that follow, each entry is paired with its recorded pest or weed control at 100 ppm.
* Fc1cc(-c2ccc(-c3noc(C(F)(F)F)n3)cc2)ccc1C1CCC(c2c(F)cccc2F)=N1 (stereo not shown) | 100
* CCOC(=O)[C@H]1CC(c2c(F)cccc2F)=N[C@H]1c1ccc(-c2ccc(-c3noc(C(C)(C)C)n3)cc2)cc1 (racemic) | 100
* COc1ccc(-c2ccc(-c3ccc(C4CCC(c5c(F)cccc5F)=N4)cc3)cc2)s1 (stereo not shown) | 100
* CCOC(=O)[C@H]1CC(c2c(F)cccc2F)=N[C@H]1c1ccc(-c2ccc(-c3nc(C(C)(C)C)no3)cc2)cc1 (racemic) | 100
* CC(C)(C)c1nc(-c2ccc(-c3ccc(C4CCC(c5c(F)cccc5F)=N4)c(F)c3)cc2)no1 (stereo not shown) | 100
* Cc1ccccc1C1=NC(c2ccc(-c3ccc(-c4noc(C(F)(F)F)n4)cc3)cc2)CC1 (stereo not shown) | 100
* N#Cc1cnn(-c2ccc(-c3ccc(C4CCC(c5c(F)cccc5F)=N4)cc3)cc2)c1 (stereo not shown) | 100
* Cc1ccccc1C1=NC(c2ccc(-c3ccc(-c4noc(C(C)(C)C)n4)cc3)cc2)CC1 (stereo not shown) | 100

Query (compound): CC(C)(C)c1noc(-c2ccc(-c3ccc(C4CCC(c5c(F)cccc5F)=N4)c(F)c3)cc2)n1 (stereo not shown) ; field requested: pest or weed control at 100 ppm 100

Try this compound next: CC(C)Oc1ccc(-c2ccc(-c3ccc(C4CCC(c5c(F)cccc5F)=N4)cc3)cc2)s1 (stereo not shown) 100

Try this compound next: CCOC(=O)[C@H]1CC(c2c(F)cccc2F)=N[C@H]1c1ccc(-c2ccc(-c3noc(C(F)(F)F)n3)cc2)cc1 (racemic) 100

Try this compound next: Cc1ccccc1C1=NC(c2ccc(-c3ccc(-c4nc(C(C)(C)C)no4)cc3)cc2)CC1 (stereo not shown) 100

Try this compound next: CCOc1ccc(-c2ccc(-c3ccc(C4CCC(c5c(F)cccc5F)=N4)cc3)cc2)s1 (stereo not shown) 100

----------
Experiment description: log P determination by HPLC on reversed-phase column (EEC Directive 79/831 Annex V.A8)
Assay type: physicochemical
Condition notes: reversed-phase C18 HPLC column; acidic range, pH 2.3, 0.1% aqueous phosphoric acid/acetonitrile, 43° C.; marked a) in tables; read-out: log P (pH 2.3)
Quantity name: chromatographic logP

In the examples that follow, each entry is paired with its recorded chromatographic logP.
- N#Cc1cnn(-c2ccc(-c3ccc(C4CCC(c5c(F)cccc5F)=N4)cc3)cc2)c1 (centres unmarked): 3.02
- Cc1ccccc1C1=NC(c2ccc(-c3ccc(-c4noc(C(F)(F)F)n4)cc3)cc2)CC1 (centres unmarked): 3.32
- CC(=O)NC(CCC(=O)c1c(F)cccc1F)c1ccc(Br)cc1F (centres unmarked): 2.74

P. Cc1nc(-c2ccc(-c3ccc(C4CCC(c5c(F)cccc5F)=N4)cc3)cc2)cs1 (centres unmarked)
Q. Cc1ccccc1C1=NC(c2ccc(Br)cc2)CC1 (centres unmarked)
Quick check, higher chromatographic logP between P and Q ? Give the label under which the chosen entry appears. P

----------
Experiment description: log P determination by HPLC on reversed-phase column (EEC Directive 79/831 Annex V.A8)
Assay type: physicochemical
Condition notes: reversed-phase C18 HPLC column; acidic range, pH 2.3, 0.1% aqueous phosphoric acid/acetonitrile, 43° C.; marked a) in tables; read-out: log P (pH 2.3)
Quantity name: chromatographic logP

• CC(C)Oc1ccc(-c2ccc(-c3ccc(C4CCC(c5c(F)cccc5F)=N4)cc3)cc2)s1 (stereo not shown) = 5.2
• CCOC(=O)[C@H]1CC(c2c(F)cccc2F)=N[C@H]1c1ccc(-c2ccc(-c3noc(C(C)(C)C)n3)cc2)cc1 (racemic) = 5.29
• CC1(C)OB(c2ccc(C3CCC(c4c(F)cccc4F)=N3)c(F)c2)OC1(C)C (stereo not shown) = 4.88
• CC(C)(C)c1noc(-c2ccc(-c3ccc(C4CCC(c5c(F)cccc5F)=N4)c(F)c3)cc2)n1 (stereo not shown) = 5.79
